test: Compound was evaluated for its binding affinity against Muscarinic acetylcholine receptor M1 in guinea pig cerebral cortex using (-)-[3H]-QNB as radioligand
Please go through the items and note down their Ki.
Quick reminder: number only, in µM, skip the unit.

The recorded Ki for C[C@H]1CC2(CO1)CN1CCC2CC1 (some centres not stated) is 6.5

Form: molecule = C[C@@H]1CCC2(CN3CCC2CC3)O1 (some centres not stated) ; Ki = 20

====

Field: pKi. Provide a value for each of the molecules that follow.
assay: Compound was evaluated for its binding affinity against muscarinic acetylcholine receptor M2 in guinea pig heart using (-)-[3H]-QNB as radioligand
pKi: −log10 of the molar value.

pKi for C[C@@H]1OCC2(CN3CCC2CC3)O1 (stereo partly drawn) is < 4.68

Please fill in: pKi reported for C[C@H]1CCC2(CN3CCC2CC3)O1 (stereo partly drawn) = 4.82

Entry under test: C[C@@H]1CC2(CO1)CN1CCC2CC1 (stereo partly drawn) . Its pKi was < 4.70

====

experiment: Compound was evaluated for its binding affinity against muscarinic acetylcholine receptor M2 in guinea pig heart using (-)-[3H]-QNB as radioligand
I'd be grateful if you could share measured Ki for these entries.
Note: unit µM is implicit; provide only the numeric part.

The reported value for C1OCC2(CN3CCC2CC3)O1 (stereo not drawn) in terms of Ki is 50

For CC1(C)OCC2(CN3CCC2CC3)O1 (stereo not drawn) the compound record lists Ki as 30

get_value(item= C[C@H]1OCC2(CN3CCC2CC3)O1 (stereo partly drawn) , readout=Ki) returns 9.7

====

Answer each item with its documented Ki.
test: Compound was evaluated for its binding affinity against Muscarinic acetylcholine receptor M1 in guinea pig cerebral cortex using (-)-[3H]-QNB as radioligand
Reply with a number, then the unit it belongs to.

Per the records, this compound ( C[C@H]1CCC2(CN3CCC2CC3)O1 (stereo partly specified) ) has Ki equal to 15 µM

get_value(item= CC1(C)OCC2(CN3CCC2CC3)O1 (stereo unspecified) , readout=Ki) returns 9.3 µM

The reported value for C[C@H]1OCC2(CN3CCC2CC3)O1 (stereo partly specified) in terms of Ki is 2.9 µM

Recorded Ki (compound C[C@@H]1OCC2(CN3CCC2CC3)O1 (stereo partly specified) ): 6.3 µM

Just so you know, measured Ki for C1OCC2(CN3CCC2CC3)O1 (stereo unspecified) came out at 19 µM

Ki reading for C[C@@H]1CC2(CO1)CN1CCC2CC1 (stereo partly specified) : 6.3 µM
